# SYSTEM: recombinant eIF4E (Homo sapiens (Human), UniProt P06730)
# Sequence (P06730 whole entry): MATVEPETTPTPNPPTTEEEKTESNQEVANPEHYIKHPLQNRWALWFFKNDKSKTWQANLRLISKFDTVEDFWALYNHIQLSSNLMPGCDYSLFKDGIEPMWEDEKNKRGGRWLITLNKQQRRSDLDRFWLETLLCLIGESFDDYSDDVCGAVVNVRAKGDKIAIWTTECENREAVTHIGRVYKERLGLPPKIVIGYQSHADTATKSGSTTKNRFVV
# TEST: Fluorescence polarization competition assay for eIF4E binding potency
# PROTOCOL_CONDITIONS: inhibition of eIF4E/EDA-m7GDP-ATTO-550 binding; calculated IC50 values, Table 4B; read-out: IC50
Entries get a class label from measured IC50. See ranges: low (below 20 nM), moderate (20 nM to below 60 nM), high (60 nM or more)

Prompt line: # bin lookup: classify Cc1nc2cnc(N(C)C3CCN(CCC(F)(F)F)CC3)c(C#N)c2c(=O)n1CCOc1ccc(Cl)cc1-c1ccnc2c(C(=O)O)csc12 by its IC50
Response line: low

More entries:
Prompt line: # bin lookup: classify Cc1nc2cnc(N3CCC4(CC3)CCN4CC(F)F)c(C#N)c2c(=O)n1CC#Cc1ccc(Cl)cc1-c1ccnc2c(C(=O)O)csc12 by its IC50
Response line: moderate

Prompt line: # bin lookup: classify Cc1nc2cnc(N(C)[C@H]3CC[C@@H](N(C)CCF)CC3)c(C#N)c2c(=O)n1CC#Cc1ccc(Cl)cc1-c1ccnc2c(C(=O)O)csc12 by its IC50
Response line: moderate

Prompt line: # bin lookup: classify Cc1cc(-c2cc(Cl)ccc2OCCn2c(C)nc3cnc(N[N+](C)(C)C)c(C#N)c3c2=O)c2scc(C(=O)O)c2n1 by its IC50
Response line: low

Prompt line: # bin lookup: classify Cc1nc2cc(C(F)(F)F)c(N3CCN(C4CC4)CC3)c(C#N)c2c(=O)n1CCOc1ccc(Cl)cc1-c1ccnc2c(C(=O)O)csc12 by its IC50
Response line: moderate

Prompt line: # bin lookup: classify Cc1nc2cnc(N(C)C3CCN(CC(F)(F)F)CC3)c(C#N)c2c(=O)n1CC#Cc1ccc(Cl)cc1-c1ccnc2c(C(N)=O)csc12 by its IC50
Response line: high

###

Listed here are molecules together with their documented IC50.
# SYSTEM: recombinant eIF4E (Homo sapiens (Human))
# TEST: Fluorescence polarization competition assay for eIF4E binding potency
# PROTOCOL_CONDITIONS: fluorescence polarization competition, 75 nM recombinant eIF4E, 20 nM EDA-m7GDP-ATTO-550; IC50 class; read-out: elF4E FP

GET /value?item= N#Cc1cc(C(F)(F)F)cc2nc(C(F)F)n(CCOc3ccc(Cl)cc3-c3ccnc4c(C(=O)O)csc34)c(=O)c12 [compound 65] &field=IC50 returns < 50 nM

GET /value?item= Cc1cc(-c2cc(Cl)ccc2OCCn2c(C)nc3c(F)cc(C(F)F)c(C#N)c3c2=O)c2cccc(C(=O)O)c2n1 [compound 490] &field=IC50 returns 50 to 1000 nM

GET /value?item= Cc1cc(-c2cc(Cl)ccc2OCCn2c(C)nc3cc(F)c(-c4cnc(C)s4)c(C#N)c3c2=O)c2scc(C(=O)O)c2n1 [compound 921] &field=IC50 returns 50 to 1000 nM

GET /value?item= Cc1cc(-c2cc(Cl)ccc2OCCn2c(C)nc3c(C4CC4)ncc(C#N)c3c2=O)c2scc(C(=O)O)c2n1 [compound 339] &field=IC50 returns < 50 nM

GET /value?item= Cc1cc(-c2cc(Cl)ccc2OCCn2c(C)nc3c(C)nc(C4CC4)c(C#N)c3c2=O)c2scc(C(=O)O)c2n1 [compound 742] &field=IC50 returns < 50 nM

GET /value?item= Cc1nc2cnc(N(C)[C@H]3CC[C@H](N(C)CCF)CC3)c(C#N)c2c(=O)n1CC#Cc1ccc(Cl)cc1-c1ccnc2c(C(=O)O)csc12 [compound 1229] &field=IC50 returns < 50 nM

// next item, IC50 requested
GET /value?item= Cc1nc2cc(C(F)(F)F)cc(C#N)c2c(=O)n1CCOc1ccc(Cl)cc1-c1cc(C2CC2)nc2c(C(=O)O)csc12 [compound 672] &field=IC50 returns 50 to 1000 nM
